- study system: T1, Human CD137 ECD (human)
- T1 construct: entry includes C-terminal His-tag and biotin acceptor peptide; also called human CD137 extracellular domain; 4-1BB
- T1 sequence (chain, as listed by the source limits assumed): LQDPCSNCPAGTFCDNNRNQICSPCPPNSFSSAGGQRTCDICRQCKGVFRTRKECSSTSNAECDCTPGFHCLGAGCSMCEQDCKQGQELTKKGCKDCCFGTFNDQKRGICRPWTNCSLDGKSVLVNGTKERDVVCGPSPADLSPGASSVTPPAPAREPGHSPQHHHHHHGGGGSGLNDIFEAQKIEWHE
- assay method text: Biacore SPR, vs parent H183/L072
Y means recorded fold change of affinity is 0.4 fold or above; N means it is below 0.4 fold.

INSERT INTO assay_data (binder, class_name) VALUES
  ('H183/L072 VL S26Y (antibody, name in Kabat numbering, V domains shown, Dual-Ig) VH: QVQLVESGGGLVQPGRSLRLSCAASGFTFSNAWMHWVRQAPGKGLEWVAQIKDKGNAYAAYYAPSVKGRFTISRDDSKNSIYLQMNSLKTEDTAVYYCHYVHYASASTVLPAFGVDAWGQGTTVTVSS VL: DIVMTQSPLSLPVTPGEPASISCQAYQELVHMNRNTYLHWYQQKPGQAPRLLIYKVSNRFPGVPDRFSGSGSGTDFTLKISRVEAEDVGVYYCAQGTSVPFTFGQGTKLEIK', 'N'),
  ('H183/L072 VL S52V (antibody, name in Kabat numbering, V domains shown, Dual-Ig) VH: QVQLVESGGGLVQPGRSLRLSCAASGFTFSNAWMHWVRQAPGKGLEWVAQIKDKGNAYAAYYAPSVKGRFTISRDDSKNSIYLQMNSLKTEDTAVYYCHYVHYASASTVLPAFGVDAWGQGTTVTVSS VL: DIVMTQSPLSLPVTPGEPASISCQASQELVHMNRNTYLHWYQQKPGQAPRLLIYKVVNRFPGVPDRFSGSGSGTDFTLKISRVEAEDVGVYYCAQGTSVPFTFGQGTKLEIK', 'Y'),
  ('H183/L072 VL V27cL (antibody, name in Kabat numbering, V domains shown, Dual-Ig) VH: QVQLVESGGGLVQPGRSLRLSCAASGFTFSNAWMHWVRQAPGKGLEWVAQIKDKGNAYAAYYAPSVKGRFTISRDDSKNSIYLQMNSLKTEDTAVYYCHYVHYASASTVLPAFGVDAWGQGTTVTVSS VL: DIVMTQSPLSLPVTPGEPASISCQASQELLHMNRNTYLHWYQQKPGQAPRLLIYKVSNRFPGVPDRFSGSGSGTDFTLKISRVEAEDVGVYYCAQGTSVPFTFGQGTKLEIK', 'Y'),
  ('H183/L072 VL H27dT (antibody, name in Kabat numbering, V domains shown, Dual-Ig) VH: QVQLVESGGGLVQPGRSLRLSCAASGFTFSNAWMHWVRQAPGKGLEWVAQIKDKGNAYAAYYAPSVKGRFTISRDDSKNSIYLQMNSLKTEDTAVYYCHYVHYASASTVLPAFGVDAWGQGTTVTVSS VL: DIVMTQSPLSLPVTPGEPASISCQASQELVTMNRNTYLHWYQQKPGQAPRLLIYKVSNRFPGVPDRFSGSGSGTDFTLKISRVEAEDVGVYYCAQGTSVPFTFGQGTKLEIK', 'Y'),
  ('H183/L072 VL L33W (antibody, name in Kabat numbering, V domains shown, Dual-Ig) VH: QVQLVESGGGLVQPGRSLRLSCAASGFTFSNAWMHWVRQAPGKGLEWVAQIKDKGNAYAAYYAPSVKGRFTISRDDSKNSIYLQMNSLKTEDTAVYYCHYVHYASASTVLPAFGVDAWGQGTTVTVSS VL: DIVMTQSPLSLPVTPGEPASISCQASQELVHMNRNTYWHWYQQKPGQAPRLLIYKVSNRFPGVPDRFSGSGSGTDFTLKISRVEAEDVGVYYCAQGTSVPFTFGQGTKLEIK', 'N'),
  ('H183/L072 VL R29N (antibody, name in Kabat numbering, V domains shown, Dual-Ig) VH: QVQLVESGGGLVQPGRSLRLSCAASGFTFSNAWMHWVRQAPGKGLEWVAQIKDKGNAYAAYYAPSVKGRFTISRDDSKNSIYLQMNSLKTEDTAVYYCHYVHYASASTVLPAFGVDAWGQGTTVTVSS VL: DIVMTQSPLSLPVTPGEPASISCQASQELVHMNNNTYLHWYQQKPGQAPRLLIYKVSNRFPGVPDRFSGSGSGTDFTLKISRVEAEDVGVYYCAQGTSVPFTFGQGTKLEIK', 'Y'),
  ('H183/L072 VL N28E (antibody, name in Kabat numbering, V domains shown, Dual-Ig) VH: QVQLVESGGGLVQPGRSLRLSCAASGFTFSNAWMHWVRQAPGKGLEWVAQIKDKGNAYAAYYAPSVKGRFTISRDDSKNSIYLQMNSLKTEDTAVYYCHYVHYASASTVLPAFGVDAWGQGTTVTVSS VL: DIVMTQSPLSLPVTPGEPASISCQASQELVHMERNTYLHWYQQKPGQAPRLLIYKVSNRFPGVPDRFSGSGSGTDFTLKISRVEAEDVGVYYCAQGTSVPFTFGQGTKLEIK', 'N');

These data points were gathered from patent US20210388087A1.
